STUDY_SYSTEM: DPAP1 (Plasmodium falciparum, UniProt Q8IIJ9);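 note: 30 min substrate incubation versus DMSO and 10 µM JCP410 controls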
Sequence (Q8IIJ9 whole entry, looked up): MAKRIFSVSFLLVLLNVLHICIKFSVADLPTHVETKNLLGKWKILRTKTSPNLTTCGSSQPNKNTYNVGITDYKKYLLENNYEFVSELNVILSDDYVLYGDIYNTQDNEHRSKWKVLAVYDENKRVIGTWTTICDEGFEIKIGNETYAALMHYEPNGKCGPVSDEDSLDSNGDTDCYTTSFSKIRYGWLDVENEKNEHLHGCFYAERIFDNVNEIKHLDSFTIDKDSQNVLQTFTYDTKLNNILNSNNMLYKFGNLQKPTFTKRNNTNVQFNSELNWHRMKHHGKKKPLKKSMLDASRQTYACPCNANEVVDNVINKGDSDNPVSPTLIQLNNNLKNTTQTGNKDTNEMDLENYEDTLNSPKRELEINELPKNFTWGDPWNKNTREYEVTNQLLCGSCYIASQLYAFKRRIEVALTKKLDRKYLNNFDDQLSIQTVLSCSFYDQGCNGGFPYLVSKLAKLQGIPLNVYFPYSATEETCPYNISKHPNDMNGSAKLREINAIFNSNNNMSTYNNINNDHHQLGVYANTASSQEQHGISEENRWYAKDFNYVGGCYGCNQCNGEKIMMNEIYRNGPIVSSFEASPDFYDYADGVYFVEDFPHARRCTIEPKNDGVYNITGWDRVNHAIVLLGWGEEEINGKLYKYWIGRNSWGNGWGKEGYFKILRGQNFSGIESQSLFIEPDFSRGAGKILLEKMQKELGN
PROCEDURE_TEXT: primary screen, percent inhibition; read by cleavage of a fluorogenic dipeptide substrate; higher = more effect of the substance
Parameters: species or system P. falciparum D10 trophozoite lysates; single well
Out of some 110,000 compounds screened, about 230 (0.21%) showed an effect of 50% or more. The list comes from a sample in which strong results are over-represented; it also holds close analogues and randomly drawn compounds.
Quick reference for % Inhibition @ 10 uM among some molecules
ENDPOINT_NAME: % Inhibition @ 10 uM (%)

[[record]]
molecule = "CCOc1ccc(C2c3c(oc4ccccc4c3=O)C(=O)N2c2nc(C)c(C(=O)OC)s2)cc1 (stereo not drawn)"
endpoint_name = "% Inhibition @ 10 uM"
obs_value = 70.8

[[record]]
molecule = "CC(C)c1nc2ccccc2n1Cc1ccccc1F"
endpoint_name = "% Inhibition @ 10 uM"
obs_value = 1.12

[[record]]
molecule = "Cn1cnc(S(=O)(=O)Nc2nnc(S)s2)c1"
endpoint_name = "% Inhibition @ 10 uM"
obs_value = 95.5

[[record]]
molecule = "Cc1ccc(S(=O)(=O)Nc2nnc(C)s2)cc1"
endpoint_name = "% Inhibition @ 10 uM"
obs_value = -1.77

[[record]]
molecule = "CC(C)Cc1c(C#N)c(S)nc2c1CCCC2"
endpoint_name = "% Inhibition @ 10 uM"
obs_value = 90.5

[[record]]
molecule = "CCc1c(C#N)c(S)nc2c1CCC2"
endpoint_name = "% Inhibition @ 10 uM"
obs_value = 88.7

[[record]]
molecule = "Cc1nc2ccc(S(=O)(=O)NC(C(=O)NCCc3ccccc3)C(C)C)cc2s1 (stereo not drawn)"
endpoint_name = "% Inhibition @ 10 uM"
obs_value = -0.0115

[[record]]
molecule = "CCOc1cc(-c2c(C)c(C)nc(N)c2C#N)ccc1O"
endpoint_name = "% Inhibition @ 10 uM"
obs_value = -1.79

[[record]]
molecule = "C#CCN1C(=O)C(O)(CC(=O)c2ccc3ccccc3c2)c2ccccc21 (stereo not drawn)"
endpoint_name = "% Inhibition @ 10 uM"
obs_value = -20.7

[[record]]
molecule = "CCCN1C(=O)c2n[nH]c(C)c2C1c1cccnc1 (stereo not drawn)"
endpoint_name = "% Inhibition @ 10 uM"
obs_value = -4.67

[[record]]
molecule = "Cc1c(CNC(=O)c2cc(-c3ccccc3)nc3ccc(Br)cc23)cnn1C"
endpoint_name = "% Inhibition @ 10 uM"
obs_value = -2.9

[[record]]
molecule = "O=C(NCc1ccco1)c1ccc(CN2CC(=O)N3CCCCC3C2=O)cc1 (stereo not drawn)"
endpoint_name = "% Inhibition @ 10 uM"
obs_value = 3.7

[[record]]
molecule = "CCOC(=O)c1sc(C)c2c(O)nc(-c3ccccc3)nc12"
endpoint_name = "% Inhibition @ 10 uM"
obs_value = -1.47

[[record]]
molecule = "CCOc1cc(C2c3c(oc4ccccc4c3=O)C(=O)N2c2nc(C)c(C(C)=O)s2)ccc1O (stereo not drawn)"
endpoint_name = "% Inhibition @ 10 uM"
obs_value = -0.828

[[record]]
molecule = "CCOC(=O)c1sc(N2C(=O)c3oc4ccccc4c(=O)c3C2c2ccc(O)c(OC)c2)nc1C (stereo not drawn)"
endpoint_name = "% Inhibition @ 10 uM"
obs_value = 2.16

[[record]]
molecule = "CC(C)Cc1c(C#N)c(SCC(N)=O)nc2c1CCCC2"
endpoint_name = "% Inhibition @ 10 uM"
obs_value = 9.71

[[record]]
molecule = "CCc1c(C#N)c(SCC(=O)OC)nc2c1CCC2"
endpoint_name = "% Inhibition @ 10 uM"
obs_value = 4.16

[[record]]
molecule = "O=C(NC1CCCCC1)C1CC(c2ccccc2F)=NO1 (stereo not drawn)"
endpoint_name = "% Inhibition @ 10 uM"
obs_value = 7.39

[[record]]
molecule = "CCOC(=O)c1sc(-c2ccccc2)nc1O"
endpoint_name = "% Inhibition @ 10 uM"
obs_value = 66.9

[[record]]
molecule = "N#Cc1c(S)nc2c(c1/C=C/c1ccccc1)CCC2"
endpoint_name = "% Inhibition @ 10 uM"
obs_value = 17.3

[[record]]
molecule = "CCc1ccc(C2c3c(oc4ccccc4c3=O)C(=O)N2c2nc(C)c(C(=O)OC)s2)cc1 (stereo not drawn)"
endpoint_name = "% Inhibition @ 10 uM"
obs_value = -1.86

[[record]]
molecule = "O=C(CCN1C(=O)c2ccccc2C1=O)NCC1CCCO1 (stereo not drawn)"
endpoint_name = "% Inhibition @ 10 uM"
obs_value = -0.349

[[record]]
molecule = "O=C(Nc1cnc2ccccc2c1O)N1CCC(Cc2ccccc2)CC1"
endpoint_name = "% Inhibition @ 10 uM"
obs_value = 5.43

[[record]]
molecule = "N#Cc1c(S)nc2c(c1-c1ccncc1)CCCC2"
endpoint_name = "% Inhibition @ 10 uM"
obs_value = 30.8

